pKi: −log10 of the molar value.
Listed here: compounds with reported pKi for UniProt Q63380.
Sequence (Q63380 whole entry): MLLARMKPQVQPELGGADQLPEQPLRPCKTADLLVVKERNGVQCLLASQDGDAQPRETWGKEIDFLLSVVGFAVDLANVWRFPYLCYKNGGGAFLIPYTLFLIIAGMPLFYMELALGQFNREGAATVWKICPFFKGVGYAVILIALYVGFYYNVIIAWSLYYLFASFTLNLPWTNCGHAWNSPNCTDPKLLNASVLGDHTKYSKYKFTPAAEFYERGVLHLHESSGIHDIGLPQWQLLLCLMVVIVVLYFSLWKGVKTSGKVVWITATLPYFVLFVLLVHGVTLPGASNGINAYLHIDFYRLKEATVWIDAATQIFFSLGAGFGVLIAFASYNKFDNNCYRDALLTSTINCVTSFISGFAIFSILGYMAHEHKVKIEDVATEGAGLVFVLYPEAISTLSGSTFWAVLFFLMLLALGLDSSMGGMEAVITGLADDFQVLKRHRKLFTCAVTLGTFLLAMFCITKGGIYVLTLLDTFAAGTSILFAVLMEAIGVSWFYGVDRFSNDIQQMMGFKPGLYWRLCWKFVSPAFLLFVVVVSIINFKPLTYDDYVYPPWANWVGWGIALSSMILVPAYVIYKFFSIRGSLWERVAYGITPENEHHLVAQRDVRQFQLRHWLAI
outcome measure: pKi

Nc1ccc(CN[C@H]2CC[C@@H](C(c3ccc(F)cc3)c3ccc(F)cc3)OC2)cc1    8.08
Nc1ccc(CN[C@H]2CC[C@@H](C(c3ccccc3)c3ccccc3)OC2)cc1    7.90
c1ccc(CCN[C@@H]2CO[C@H](C(c3ccccc3)c3ccccc3)C2)cc1    6.37
Fc1ccc(C(c2ccc(F)cc2)[C@@H]2CC[C@H](NCc3ccc4c(c3)CCO4)CO2)cc1    8.21
Oc1ccc(CCN[C@@H]2CO[C@H](C(c3ccccc3)c3ccccc3)C2)cc1    6.78

P = Oc1ccc(CN[C@H]2CO[C@H](C(c3ccccc3)c3ccccc3)C2)cc1
Q = Oc1ccc(CN[C@H]2CC[C@@H](CC(c3ccccc3)c3ccccc3)OC2)cc1
R = Oc1ccc(CN[C@H]2CC[C@@H](CCC(c3ccccc3)c3ccccc3)OC2)cc1
Data request: Sort entries by pKi from minimum to maximum value. To answer, write out the labels according to the requested order.
Data returned: P, Q, R

P = Fc1ccc(CCN[C@@H]2CO[C@H](C(c3ccccc3)c3ccccc3)C2)cc1
Q = c1ccc(CCN[C@H]2CO[C@H](C(c3ccccc3)c3ccccc3)C2)cc1
Data request: For this pair, P and Q , which shows a numerically higher pKi? Reply briefly: the label of your chosen item.
Data returned: P

###

pKi: −log10 of the molar value.
Listed here: molecules with reported pKi for Sodium-dependent dopamine transporter (Rattus norvegicus, UniProt P23977).
outcome measure: pKi

Fc1ccc(C(c2ccc(F)cc2)[C@@H]2CC[C@H](NCc3ccc4c(c3)CCO4)CO2)cc1    7.95

P = Oc1ccc(CN[C@@H]2CO[C@H](C(c3ccccc3)c3ccccc3)C2)cc1
Q = COc1ccc(CCN[C@@H]2CO[C@H](C(c3ccccc3)c3ccccc3)C2)cc1
R = Fc1ccc(CCN[C@@H]2CO[C@H](C(c3ccccc3)c3ccccc3)C2)cc1
Data request: Sort entries by pKi from minimum to maximum value. To answer, write out the labels according to the requested order.
Data returned: P, R, Q
(P: 6.03, R: 6.23, Q: 6.58)

###

Listed here: compounds with reported Ki for Sodium-dependent serotonin transporter (Rattus norvegicus).
outcome measure: Ki (µM)

Solved entries:
Nc1ccc(CN[C@H]2CC[C@@H](C(c3ccc(F)cc3)c3ccc(F)cc3)OC2)cc1    0.0691
Oc1ccc(CN[C@H]2CC[C@@H](Cc3ccccc3)OC2)cc1    2.5
Fc1ccc(C(c2ccc(F)cc2)[C@@H]2CC[C@H](NCc3ccc4c(c3)CCO4)CO2)cc1    0.003

P = Oc1ccc(CN[C@H]2CC[C@@H](CCC(c3ccccc3)c3ccccc3)OC2)cc1
Q = c1ccc(CCN[C@@H]2CO[C@H](C(c3ccccc3)c3ccccc3)C2)cc1
R = Oc1ccc(CCN[C@@H]2CO[C@H](C(c3ccccc3)c3ccccc3)C2)cc1
Data request: Sort entries by Ki from minimum to maximum value. To answer, write out the labels according to the requested order.
Data returned: R, P, Q

###

- tested system: Sodium-dependent dopamine transporter (Rattus norvegicus, UniProt P23977)
- Sequence (P23977 whole entry): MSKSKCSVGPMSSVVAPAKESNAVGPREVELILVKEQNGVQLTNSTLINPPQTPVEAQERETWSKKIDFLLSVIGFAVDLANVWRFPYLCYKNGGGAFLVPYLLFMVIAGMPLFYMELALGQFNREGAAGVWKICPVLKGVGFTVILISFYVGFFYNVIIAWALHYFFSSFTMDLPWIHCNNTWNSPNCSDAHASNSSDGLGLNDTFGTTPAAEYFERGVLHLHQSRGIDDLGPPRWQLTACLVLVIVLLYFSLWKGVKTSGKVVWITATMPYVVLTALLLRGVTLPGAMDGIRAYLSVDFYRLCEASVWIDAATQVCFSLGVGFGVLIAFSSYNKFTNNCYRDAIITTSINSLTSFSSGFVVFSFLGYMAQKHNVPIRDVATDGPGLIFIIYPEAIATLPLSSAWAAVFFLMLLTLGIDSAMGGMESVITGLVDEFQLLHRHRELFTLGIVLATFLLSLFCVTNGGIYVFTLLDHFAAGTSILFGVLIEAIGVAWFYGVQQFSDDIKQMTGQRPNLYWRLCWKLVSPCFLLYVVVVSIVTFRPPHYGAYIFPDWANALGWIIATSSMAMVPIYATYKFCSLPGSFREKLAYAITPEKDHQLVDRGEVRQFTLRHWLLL
- protocol: Displacement of [3H]-dopamine from rat striatum DAT after 5 mins
pKi: −log10 of the molar value.
outcome measure: pKi

c1ccc(CCN[C@H]2CO[C@H](C(c3ccccc3)c3ccccc3)C2)cc1    6.34
c1ccc(CCN[C@@H]2CO[C@H](C(c3ccccc3)c3ccccc3)C2)cc1    6.19
Nc1ccc(CN[C@H]2CC[C@@H](C(c3ccc(F)cc3)c3ccc(F)cc3)OC2)cc1    7.49
